tgt: AKR1C3 (Homo sapiens (Human), UniProt P42330)
Sequence (P42330 whole entry): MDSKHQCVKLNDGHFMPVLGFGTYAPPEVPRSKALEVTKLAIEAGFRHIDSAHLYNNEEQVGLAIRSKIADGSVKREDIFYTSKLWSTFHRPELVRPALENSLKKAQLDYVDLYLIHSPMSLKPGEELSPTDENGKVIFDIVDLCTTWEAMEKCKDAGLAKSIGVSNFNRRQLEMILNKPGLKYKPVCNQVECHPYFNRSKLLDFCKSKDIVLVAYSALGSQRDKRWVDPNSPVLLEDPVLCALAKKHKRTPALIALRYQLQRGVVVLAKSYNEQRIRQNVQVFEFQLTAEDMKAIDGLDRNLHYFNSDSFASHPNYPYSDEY
experimental protocol: AKR1C3 enzyme assay (coumberone reduction, fluorescence)
Assay type: biochemical
condition summary: recombinant human AKR1C3, coumberone 0.3 μM, NADPH 10 μM; read-out: AKR1C3 enzyme inhibition IC50
Just a reminder that ties go to label 0: only IC50 strictly below 10 nM counts as label 1.

I wonder whether C[C@]12CC[C@@H]3c4ccc(C(=O)NCCS(N)(=O)=O)cc4CC[C@H]3[C@@H]1CC=C2c1cncc(C(F)(F)F)c1 [Example 24] has IC50 below 10 nM. Can you tell?
label 0

I wonder whether C[C@]12CC[C@@H]3c4ccc(C(=O)N5CCC[C@H]5C(N)=O)cc4CC[C@H]3[C@@H]1CC=C2c1cncc(F)c1 [Example 30] has IC50 below 10 nM. Can you tell?
label 0

I wonder whether C[C@]12C[C@H](F)[C@@H]3c4ccc(C(=O)NCCS(N)(=O)=O)cc4CC[C@H]3[C@@H]1CC=C2c1cncc(F)c1 [Example 8] has IC50 below 10 nM. Can you tell?
label 0

I wonder whether CCN(CCO)C(=O)c1ccc2c(c1)CC[C@@H]1[C@@H]2CC[C@]2(C)C(c3cncc(F)c3)=CC[C@@H]12 [Example 32] has IC50 below 10 nM. Can you tell?
label 0

I wonder whether C[C@]12CC[C@@H]3c4ccc(C(N)=O)cc4CC[C@H]3[C@@H]1CC=C2c1cncc(C#N)c1 [Example 6] has IC50 below 10 nM. Can you tell?
label 0

I wonder whether C[C@]12CC[C@@H]3c4ccc(C(=O)NCc5nnn[nH]5)cc4CC[C@H]3[C@@H]1CC=C2c1cncc(F)c1 [Example 22] has IC50 below 10 nM. Can you tell?
label 1

I wonder whether CCNC(=O)c1ccc2c(c1)CC[C@@H]1[C@@H]2CC[C@]2(C)C(c3cncc(F)c3)=CC[C@@H]12 [Example 39] has IC50 below 10 nM. Can you tell?
label 1

I wonder whether CC[C@@H](CO)NC(=O)c1ccc2c(c1)CC[C@@H]1[C@@H]2CC[C@]2(C)C(c3cncc(F)c3)=CC[C@@H]12 [Example 15] has IC50 below 10 nM. Can you tell?
label 0

I wonder whether CC(C)(CNC(=O)c1ccc2c(c1)CC[C@@H]1[C@@H]2CC[C@]2(C)C(c3cncc(F)c3)=CC[C@@H]12)NS(C)(=O)=O [Example 31] has IC50 below 10 nM. Can you tell?
label 0

I wonder whether C[C@]12CC[C@@H]3c4ccc(C(=O)NCCOCCO)cc4CC[C@H]3[C@@H]1CC=C2c1cncc(F)c1 [Example 46] has IC50 below 10 nM. Can you tell?
label 1

I wonder whether C[S+]([O-])CCNC(=O)c1ccc2c(c1)CC[C@@H]1[C@@H]2CC[C@]2(C)C(c3cncc(F)c3)=CC[C@@H]12 (stereo partly drawn) [Example 37] has IC50 below 10 nM. Can you tell?
label 1

* * *

experimental protocol: Kinetic solubility by laser nephelometry
Type: physicochemical
condition summary: pH 7.4, aqueous buffer, kinetic from dmso stock
For each of the molecules below, state its solubility.
// units = µg/mL; emit number, no label

Let me know recorded solubility for CC1(CNC(=O)c2ccc3c(c2)CC[C@@H]2[C@@H]3CC[C@]3(C)C(c4cncc(F)c4)=CC[C@@H]23)COC1 [Example 43] , thanks.
154

Let me know recorded solubility for C[C@]12CC[C@@H]3c4ccc(C(=O)NCCc5nnn[nH]5)cc4CC[C@H]3[C@@H]1CC=C2c1cncc(F)c1 [Example 21] , thanks.
158

Let me know recorded solubility for C[C@@H](O)CNC(=O)c1ccc2c(c1)CC[C@@H]1[C@@H]2CC[C@]2(C)C(c3cncc(F)c3)=CC[C@@H]12 [Example 38] , thanks.
145

Let me know recorded solubility for C[C@@H](CO)NC(=O)c1ccc2c(c1)CC[C@@H]1[C@@H]2CC[C@]2(C)C(c3cncc(F)c3)=CC[C@@H]12 [Example 40] , thanks.
145

Let me know recorded solubility for CNC(=O)[C@@H]1CCCN1C(=O)c1ccc2c(c1)CC[C@@H]1[C@@H]2CC[C@]2(C)C(c3cncc(F)c3)=CC[C@@H]12 [Example 29] , thanks.
24

Let me know recorded solubility for C[C@]12CC[C@@H]3c4ccc(C(=O)N5CCC[C@H]5c5nnn[nH]5)cc4CC[C@H]3[C@@H]1CC=C2c1cncc(F)c1 [Example 28] , thanks.
166

Let me know recorded solubility for C[C@]12CC[C@@H]3c4ccc(C(=O)NCc5nnn[nH]5)cc4CC[C@H]3[C@@H]1CC=C2c1cncc(F)c1 [Example 22] , thanks.
153
